The reported numbers originate from patent US20260242735A1.

Target: human CD33 Q364A (human, UniProt P20138 18-363)
Sequence (P20138 18-364 Q364A limits assumed): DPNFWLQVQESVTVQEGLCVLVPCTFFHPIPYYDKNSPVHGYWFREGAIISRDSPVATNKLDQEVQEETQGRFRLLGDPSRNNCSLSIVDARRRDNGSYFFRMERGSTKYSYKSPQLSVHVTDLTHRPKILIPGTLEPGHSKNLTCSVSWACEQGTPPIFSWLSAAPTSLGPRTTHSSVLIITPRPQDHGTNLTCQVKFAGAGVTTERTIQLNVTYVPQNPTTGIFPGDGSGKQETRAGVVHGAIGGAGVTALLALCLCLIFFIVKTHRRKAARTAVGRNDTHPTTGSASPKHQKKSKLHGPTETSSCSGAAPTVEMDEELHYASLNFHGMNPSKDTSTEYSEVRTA
Assay: flow cytometry, alanine scan
quantity measured: Mean % WT Binding

Q: Note Mean % WT Binding for the binder shown: Refmab #2 (antibody, V domains shown, The alanine scan used IgG or Fab) VH: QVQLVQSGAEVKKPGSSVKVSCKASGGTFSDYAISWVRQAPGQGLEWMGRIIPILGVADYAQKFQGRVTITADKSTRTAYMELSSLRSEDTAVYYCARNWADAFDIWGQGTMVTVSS VL: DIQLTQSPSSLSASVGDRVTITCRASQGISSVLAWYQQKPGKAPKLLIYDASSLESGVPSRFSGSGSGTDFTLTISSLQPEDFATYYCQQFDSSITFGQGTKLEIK
Result: 109 % of WT

Q: Look up Mean % WT Binding of Refmab #3 (antibody, V domains shown, The alanine scan used IgG or Fab) VH: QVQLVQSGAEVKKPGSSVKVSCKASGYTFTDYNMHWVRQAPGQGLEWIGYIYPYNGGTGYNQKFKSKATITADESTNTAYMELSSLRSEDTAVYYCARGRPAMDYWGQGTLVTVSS VL: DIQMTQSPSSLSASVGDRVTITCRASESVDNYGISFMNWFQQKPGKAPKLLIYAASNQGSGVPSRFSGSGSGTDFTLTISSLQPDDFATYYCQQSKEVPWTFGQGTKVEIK and report it.
Result: 97.8 % of WT

Q: Annotate the binder Refmab #4 (antibody, V domains shown, The alanine scan used IgG or Fab) VH: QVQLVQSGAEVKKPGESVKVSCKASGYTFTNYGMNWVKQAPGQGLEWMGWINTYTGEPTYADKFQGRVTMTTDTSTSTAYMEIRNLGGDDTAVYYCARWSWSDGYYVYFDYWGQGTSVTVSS VL: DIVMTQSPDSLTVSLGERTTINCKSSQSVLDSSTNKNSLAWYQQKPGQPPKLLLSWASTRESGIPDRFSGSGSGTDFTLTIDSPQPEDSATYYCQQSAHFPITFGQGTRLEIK with its measured Mean % WT Binding.
Result: 81.5 % of WT
